test system: Escherichia coli; test: Antibacterial activity against Escherichia coli 10-1 after 18 to 24 hrs by NCCLS method; assay type: functional
recordedEndpoint: MIC

Worked examples, 5 molecules total:
cpdsmiles=COc1cccc(CN2CCN(c3cc4c(cc3F)c(=O)c(C(=O)O)cn4C3CC3)CC2)c1OC assayedtarget="Escherichia coli" recordedendpoint=MIC reading="> 128 µg/mL"
cpdsmiles=O=C(O)c1cn(C2CC2)c2cc(N3CCN(Cc4ccc5c(c4)OCCO5)CC3)c(F)cc2c1=O assayedtarget="Escherichia coli" recordedendpoint=MIC reading="> 128 µg/mL"
cpdsmiles=COc1cc(Br)c(CN2CCN(c3cc4c(cc3F)c(=O)c(C(=O)O)cn4C3CC3)CC2)cc1OC assayedtarget="Escherichia coli" recordedendpoint=MIC reading="> 128 µg/mL"
cpdsmiles=O=C(O)c1cn(C2CC2)c2cc(N3CCN(Cc4cc5c(cc4[N+](=O)[O-])OCO5)CC3)c(F)cc2c1=O assayedtarget="Escherichia coli" recordedendpoint=MIC reading="32 µg/mL"
cpdsmiles=COc1cc(CN2CCN(c3cc4c(cc3F)c(=O)c(C(=O)O)cn4C3CC3)CC2)ccc1OCc1ccccc1 assayedtarget="Escherichia coli" recordedendpoint=MIC reading="> 128 µg/mL"

// lookup MIC for O=C(O)c1cn(C2CC2)c2cc(N3CCN(Cc4ccc5c(c4)OCO5)CC3)c(F)cc2c1=O > 128 µg/mL

// lookup MIC for COc1ccc(CN2CCN(c3cc4c(cc3F)c(=O)c(C(=O)O)cn4C3CC3)CC2)cc1 > 128 µg/mL

// lookup MIC for COc1ccc(CN2CCN(c3cc4c(cc3F)c(=O)c(C(=O)O)cn4C3CC3)CC2)c(Cl)c1OC > 128 µg/mL

* * *

Recorded MIC by entry
test system: Pseudomonas aeruginosa; test: Antibacterial activity against Pseudomonas aeruginosa 10-5 after 18 to 24 hrs by NCCLS method; format: functional
The figure you give is taken to be in µg/mL; do not add the unit.

Worked examples, 6 compounds total:
cpdsmiles=COc1cc(CN2CCN(c3cc4c(cc3F)c(=O)c(C(=O)O)cn4C3CC3)CC2)ccc1OCc1ccccc1 reading=32
cpdsmiles=COc1cc(CN2CCN(c3cc4c(cc3F)c(=O)c(C(=O)O)cn4C3CC3)CC2)cc(OC)c1OC reading=32
cpdsmiles=COc1ccc(CN2CCN(c3cc4c(cc3F)c(=O)c(C(=O)O)cn4C3CC3)CC2)c(OC)c1OC reading=32
cpdsmiles=O=C(O)c1cn(C2CC2)c2cc(N3CCN(Cc4ccccc4)CC3)c(F)cc2c1=O reading=16
cpdsmiles=O=C(O)c1cn(C2CC2)c2cc(N3CCN(Cc4cc5c(cc4[N+](=O)[O-])OCO5)CC3)c(F)cc2c1=O reading=1
cpdsmiles=COc1ccc(CN2CCN(c3cc4c(cc3F)c(=O)c(C(=O)O)cn4C3CC3)CC2)cc1OC reading=32

// lookup MIC for O=C(O)c1cn(C2CC2)c2cc(N3CCN(Cc4ccc(OCc5ccccc5)cc4)CC3)c(F)cc2c1=O 16

// lookup MIC for COc1ccc(CN2CCN(c3cc4c(cc3F)c(=O)c(C(=O)O)cn4C3CC3)CC2)cc1 4

// lookup MIC for COc1cccc(CN2CCN(c3cc4c(cc3F)c(=O)c(C(=O)O)cn4C3CC3)CC2)c1OC 32

// lookup MIC for O=C(O)c1cn(C2CC2)c2cc(N3CCN(Cc4ccc5c(c4)OCCO5)CC3)c(F)cc2c1=O 16

// lookup MIC for O=C(O)c1cn(C2CC2)c2cc(N3CCN(Cc4ccc5c(c4)OCO5)CC3)c(F)cc2c1=O 16

// lookup MIC for COc1cc(CN2CCN(c3cc4c(cc3F)c(=O)c(C(=O)O)cn4C3CC3)CC2)cc(OC)c1 64

// lookup MIC for COc1ccc(OC)c(CN2CCN(c3cc4c(cc3F)c(=O)c(C(=O)O)cn4C3CC3)CC2)c1 16

// lookup MIC for COc1cc(CN2CCN(c3cc4c(cc3F)c(=O)c(C(=O)O)cn4C3CC3)CC2)c([N+](=O)[O-])cc1OC 8

// lookup MIC for COc1ccc(CN2CCN(c3cc4c(cc3F)c(=O)c(C(=O)O)cn4C3CC3)CC2)c(Cl)c1OC 64

// lookup MIC for COc1cc(Br)c(CN2CCN(c3cc4c(cc3F)c(=O)c(C(=O)O)cn4C3CC3)CC2)cc1OC 8

meta.source: ChEMBL document CHEMBL2157880
